biological target: Cytochrome P450 1A2 (Homo sapiens); test: Cytochrome panel assay with activity outcomes; settings: recombinant CYP, pro-luciferin dealkylation, luminescence, p450-cyp1a2; series mostly up to 57.1 µM
Among all 16,000 compounds or so, about 5,700 (36%) were called active. Not shown: some 24% with an inconclusive outcome. Calls follow the shape of the dose curve; as a rule, active = well fitted curve in the direction sought with a large enough effect; inconclusive = small, poorly fitted or top-dose-only effect, or effect the other way; inactive = no such curve, though single readings can be large or run the other way. The list shows a part of the results.
One label from this list, please: active, inactive

Consider the worked cases shown below.
INSERT INTO results (compound, assigned_category) VALUES
  ('FC(F)(F)c1ccccc1-c1cc(N2CCNCC2)ncn1', 'active'),
  ('COc1ccccc1-c1nc(NCc2cccs2)c2ccccc2n1', 'active'),
  ('O=C(NCC1COc2ccccc2O1)C1CCN(S(=O)(=O)c2cccc3nsnc23)CC1 (stereo not given)', 'inactive'),
  ('Clc1ccccc1-c1nc(NCc2cccs2)c2ccccc2n1', 'active'),
  ('COCCCNCCCCOc1c(Cl)cc(C)cc1Br', 'active');

Query: # fetch the recorded call for `CCCC(=O)Nc1nc2nc(-c3ccccc3)cc(-c3ccccc3)n2n1` here
Reply: active

Query: Which outcome did this test record for the compound `Cc1ccc(C(=O)c2cn(-c3ccc(F)c(Cl)c3)nn2)cc1` ?
Reply: inactive

Query: Which result was noted for this compound in the test: `CN[C@H]1[C@@H](O[C@@H]2[C@H](O[C@@H]3[C@@H](O)[C@@H](O)[C@@H](N=C(N)N)[C@@H](O)[C@@H]3N=C(N)N)O[C@H](C)[C@@]2(O)C=O)O[C@@H](CO)[C@@H](O)[C@H]1O`
Reply: inactive

Query: Dear colleague, could you share the recorded outcome for `COc1ccccc1-c1nc(NCc2ccccc2)c2ccccc2n1` when you have a moment?
Reply: active

Query: Short answer needed: outcome of this test for `CC(C)(C)C(=O)OCc1cn(-c2ccc(Cl)cc2)nn1` ?
Reply: active

---

biological target: Cytochrome P450 1A2 (Homo sapiens); assay: Cytochrome panel assay with activity outcomes; details: recombinant CYP, pro-luciferin dealkylation, luminescence, p450-cyp1a2; series mostly up to 57.1 µM
About 5,700 (36%) of roughly 16,000 compounds were called active. Not shown: some 24% with an inconclusive outcome. Calls come from the whole dose curve; as a rule, active = well fitted curve in the direction sought with a large enough effect; inconclusive = small, poorly fitted or top-dose-only effect, or effect the other way; inactive = no such curve, though single readings can be large or run the other way. The list shows a part of the results.
# output must be one of True for active, False for inactive

Previously resolved entries follow.
INSERT INTO results (compound, assigned_category) VALUES
  ('CCOc1ccc(CC(=O)Nc2sc(Cc3ccccc3)c(C)c2C(N)=O)cc1OCC', 'False'),
  ('CCN1CCN(C(c2ccccn2)c2c(NC(=O)c3ccccc3)sc(C)c2C)CC1 (stereo not given)', 'False'),
  ('CCOC(=O)c1c(NC(=O)Nc2ccccc2)sc(C)c1C', 'True');

Next up:
Query: What did the test return for `Cc1sc(NC(=O)C(C)C)c(C(=O)Nc2ccccc2)c1C` ?
Reply: True

---

target: Cytochrome P450 1A2 (Homo sapiens); assay: Cytochrome panel assay with activity outcomes; conditions: recombinant CYP, pro-luciferin dealkylation, luminescence, p450-cyp1a2; series mostly up to 57.1 µM
Screen size: about 16,000 compounds; about 5,700 (36%) were called active. Another 24% or so got no clear call; they are omitted. The call rests on the fitted dose curve; in most records, active means well fitted curve in the direction sought with a large enough effect; inconclusive means small, poorly fitted or top-dose-only effect, or effect the other way; inactive means no such curve, though single readings can be large or run the other way. The list shows a part of the results.
Hi there, use one of these labels in your reply, thanks! yes (active), no (inactive)

A selection of reference data follows.
INSERT INTO measurements (molecule, assigned_category) VALUES
  ('CN(Cc1ccco1)c1cc(-c2ccccc2Cl)ncn1', 'yes'),
  ('CCn1c2ccccc2c2cnc(N=CN(C)C)c(C#N)c21', 'yes'),
  ('CN(C)Cc1ccccc1-c1cc(N(C)Cc2ccco2)ncn1', 'yes'),
  ('C/C(=N\N=C1\NC(=O)CC(C(=O)O)S1)c1cccs1 (stereo unspecified)', 'no');

Query: Tell me the assay call for `C/C(=N\N=C(c1ccccc1)c1ccccc1)c1cccs1` please.
Reply: yes

Query: Write down the call the test reported for this molecule. Item: `NC(=O)/C(=N\O)c1ccccc1`
Reply: no
